Origin of values: patent US20260116991A1

Please go through the items and note down their pKd.
target: T1, monkey GPC3-His protein (monkey); experiment: SPR, antibody captured on Protein A chip, monkey GPC3-His analyte;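 further: run at 25 °C with 240 s association and up to 600 s dissociation, double-referenced, kinetics fitted to a 1:1 Langmuir binding model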
T1 construct: Bought recombinant protein; also called monkey GPC3 protein
Answers are plain numbers, as −log10 of the molar value.

Look over these answered cases.
[[record]]
binder = "F1.21.8 (antibody, human IgG1, kappa, V domains shown, Human-murine chimeric antibody) VH: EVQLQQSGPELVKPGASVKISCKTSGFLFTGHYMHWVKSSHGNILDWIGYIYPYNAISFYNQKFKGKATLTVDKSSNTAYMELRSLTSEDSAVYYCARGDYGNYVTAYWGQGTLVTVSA VL: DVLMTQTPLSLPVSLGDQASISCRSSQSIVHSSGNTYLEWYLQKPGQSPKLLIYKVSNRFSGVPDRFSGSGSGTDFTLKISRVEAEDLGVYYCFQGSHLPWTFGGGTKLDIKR"
property = "pKd"
measured_value = 10.00

[[record]]
binder = "F4.26.1 (antibody, human IgG1, kappa, V domains shown, Human-murine chimeric antibody) VH: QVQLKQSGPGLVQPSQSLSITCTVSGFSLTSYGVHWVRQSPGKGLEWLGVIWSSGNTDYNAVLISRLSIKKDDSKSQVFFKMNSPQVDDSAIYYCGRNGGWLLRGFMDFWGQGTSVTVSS VL: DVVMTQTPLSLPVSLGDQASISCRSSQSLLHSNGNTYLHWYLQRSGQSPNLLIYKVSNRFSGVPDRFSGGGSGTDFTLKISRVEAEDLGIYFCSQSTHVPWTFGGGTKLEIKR"
property = "pKd"
measured_value = 8.86


Next binder, pKd to be filled in.
// F2.154.1 (antibody, human IgG1, kappa, V domains shown, Human-murine chimeric antibody) VH: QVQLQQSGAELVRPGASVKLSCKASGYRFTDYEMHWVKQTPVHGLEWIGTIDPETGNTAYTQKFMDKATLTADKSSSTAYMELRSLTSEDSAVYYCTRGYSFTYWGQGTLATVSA VL: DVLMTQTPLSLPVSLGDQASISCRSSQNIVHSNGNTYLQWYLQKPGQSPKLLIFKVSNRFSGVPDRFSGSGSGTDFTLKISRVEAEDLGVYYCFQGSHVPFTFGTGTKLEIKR : pKd value = 9.15
